Reference for the values: paper PMC4738305

run-description: Concentration and elimination of ADP and its metabolites in liver, kidney, muscle, fat/skin after oral ^3H-ADP for 7 d
Assay type: in vivo, rats
condition-set: rat, liver, oral, 5 mg/kg b. w.
endpoint-label: concentration at 14 d (ng/g)
Answers are plain numbers, in ng/g.

For the compound "COc1cc(Cc2cnc(N)nc2N)cc(OC)c1N(C)C" , give its reported concentration at 14 d. 170

====

run-description: Concentration and elimination of ADP and its metabolites in liver, kidney, muscle, fat/skin after oral ^3H-ADP for 7 d
Assay type: in vivo, swine
condition-set: pig, tissues (liver, kidney, muscle, fat/skin), po, 5 mg/kg; swine tissues; read-out: t1/2 of the individual compound, range over tissues
endpoint-label: half-life

# compound-smiles, endpoint-label, measured
records = [
    ("CNc1c(OC)cc(Cc2cnc(N)nc2N)cc1OC", "half-life", "17.5 to 25 h"),
]

For the molecule "COc1cc(Cc2cnc(N)nc2N)cc(OC)c1N(C)C" , give its reported half-life. 38.9 to 105 h
